- applied conditions: in toluene, 283.15 K
measure: solubility (mole fraction)
Simply state the number, no unit and no words.

*Q* Identify measured solubility (mole fraction) associated with "N#Cc1cccc([N+](=O)[O-])c1C#N"
*A* 0.00116

----------
- applied conditions: in acetone, 288.15 K
measure: solubility (mole fraction)
Simply state the number, no unit and no words.

*Q* Identify measured solubility (mole fraction) associated with "N#Cc1cccc([N+](=O)[O-])c1C#N"
*A* 0.0286

----------
- applied conditions: in acetone, 293.15 K
measure: solubility (mole fraction)
Simply state the number, no unit and no words.

*Q* Identify measured solubility (mole fraction) associated with "N#Cc1cccc([N+](=O)[O-])c1C#N"
*A* 0.0338

----------
- applied conditions: in n-butanol, 313.15 K
measure: solubility (mole fraction)

*Q* Identify measured solubility (mole fraction) associated with "N#Cc1cccc([N+](=O)[O-])c1C#N"
*A* 0.00143

----------
- applied conditions: in methanol, 298.15 K
measure: solubility (mole fraction)
Simply state the number, no unit and no words.

*Q* Identify measured solubility (mole fraction) associated with "N#Cc1cccc([N+](=O)[O-])c1C#N"
*A* 0.00388

----------
- applied conditions: in isobutanol, 298.15 K
measure: solubility (mole fraction)
Simply state the number, no unit and no words.

*Q* Identify measured solubility (mole fraction) associated with "N#Cc1cccc([N+](=O)[O-])c1C#N"
*A* 0.000643

----------
- applied conditions: in n-butanol, 303.15 K
measure: solubility (mole fraction)

*Q* Identify measured solubility (mole fraction) associated with "N#Cc1cccc([N+](=O)[O-])c1C#N"
*A* 0.001

----------
- applied conditions: in isobutanol, 313.15 K
measure: solubility (mole fraction)
Simply state the number, no unit and no words.

*Q* Identify measured solubility (mole fraction) associated with "N#Cc1cccc([N+](=O)[O-])c1C#N"
*A* 0.00111

----------
- applied conditions: in n-propanol, 318.15 K
measure: solubility (mole fraction)
Simply state the number, no unit and no words.

*Q* Identify measured solubility (mole fraction) associated with "N#Cc1cccc([N+](=O)[O-])c1C#N"
*A* 0.00317

----------
- applied conditions: in isobutanol, 303.15 K
measure: solubility (mole fraction)
Simply state the number, no unit and no words.

*Q* Identify measured solubility (mole fraction) associated with "N#Cc1cccc([N+](=O)[O-])c1C#N"
*A* 0.000765

----------
- applied conditions: in methanol, 303.15 K
measure: solubility (mole fraction)
Simply state the number, no unit and no words.

*Q* Identify measured solubility (mole fraction) associated with "N#Cc1cccc([N+](=O)[O-])c1C#N"
*A* 0.00452

----------
- applied conditions: in water, 318.15 K
measure: solubility (mole fraction)
Simply state the number, no unit and no words.

*Q* Identify measured solubility (mole fraction) associated with "N#Cc1cccc([N+](=O)[O-])c1C#N"
*A* 0.00025

----------
- applied conditions: in water, 323.15 K
measure: solubility (mole fraction)
Simply state the number, no unit and no words.

*Q* Identify measured solubility (mole fraction) associated with "N#Cc1cccc([N+](=O)[O-])c1C#N"
*A* 0.000298

----------
- applied conditions: in ethylene glycol, 283.15 K
measure: solubility (mole fraction)
Simply state the number, no unit and no words.

*Q* Identify measured solubility (mole fraction) associated with "N#Cc1cccc([N+](=O)[O-])c1C#N"
*A* 0.0158

----------
- applied conditions: in isopropanol, 303.15 K
measure: solubility (mole fraction)
Simply state the number, no unit and no words.

*Q* Identify measured solubility (mole fraction) associated with "N#Cc1cccc([N+](=O)[O-])c1C#N"
*A* 0.00151

----------
- applied conditions: in ethylene glycol, 308.15 K
measure: solubility (mole fraction)
Simply state the number, no unit and no words.

*Q* Identify measured solubility (mole fraction) associated with "N#Cc1cccc([N+](=O)[O-])c1C#N"
*A* 0.0373

----------
- applied conditions: in ethyl acetate, 293.15 K
measure: solubility (mole fraction)

*Q* Identify measured solubility (mole fraction) associated with "N#Cc1cccc([N+](=O)[O-])c1C#N"
*A* 0.0281

----------
- applied conditions: in isobutanol, 293.15 K
measure: solubility (mole fraction)
Simply state the number, no unit and no words.

*Q* Identify measured solubility (mole fraction) associated with "N#Cc1cccc([N+](=O)[O-])c1C#N"
*A* 0.000552

----------
- applied conditions: in ethylene glycol, 278.15 K
measure: solubility (mole fraction)
Simply state the number, no unit and no words.

*Q* Identify measured solubility (mole fraction) associated with "N#Cc1cccc([N+](=O)[O-])c1C#N"
*A* 0.0131

----------
- applied conditions: in n-propanol, 323.15 K
measure: solubility (mole fraction)
Simply state the number, no unit and no words.

*Q* Identify measured solubility (mole fraction) associated with "N#Cc1cccc([N+](=O)[O-])c1C#N"
*A* 0.00373

----------
- applied conditions: in ethylene glycol, 313.15 K
measure: solubility (mole fraction)
Simply state the number, no unit and no words.

*Q* Identify measured solubility (mole fraction) associated with "N#Cc1cccc([N+](=O)[O-])c1C#N"
*A* 0.0438

----------
- applied conditions: in n-butanol, 278.15 K
measure: solubility (mole fraction)
Simply state the number, no unit and no words.

*Q* Identify measured solubility (mole fraction) associated with "N#Cc1cccc([N+](=O)[O-])c1C#N"
*A* 0.000411

----------
- applied conditions: in ethyl acetate, 288.15 K
measure: solubility (mole fraction)
Simply state the number, no unit and no words.

*Q* Identify measured solubility (mole fraction) associated with "N#Cc1cccc([N+](=O)[O-])c1C#N"
*A* 0.0242

----------
- applied conditions: in isopropanol, 293.15 K
measure: solubility (mole fraction)
Simply state the number, no unit and no words.

*Q* Identify measured solubility (mole fraction) associated with "N#Cc1cccc([N+](=O)[O-])c1C#N"
*A* 0.00103

----------
- applied conditions: in isobutanol, 278.15 K
measure: solubility (mole fraction)
Simply state the number, no unit and no words.

*Q* Identify measured solubility (mole fraction) associated with "N#Cc1cccc([N+](=O)[O-])c1C#N"
*A* 0.000381

----------
- applied conditions: in ethylene glycol, 323.15 K
measure: solubility (mole fraction)

*Q* Identify measured solubility (mole fraction) associated with "N#Cc1cccc([N+](=O)[O-])c1C#N"
*A* 0.0596

----------
- applied conditions: in ethanol, 298.15 K
measure: solubility (mole fraction)
Simply state the number, no unit and no words.

*Q* Identify measured solubility (mole fraction) associated with "N#Cc1cccc([N+](=O)[O-])c1C#N"
*A* 0.00194

----------
- applied conditions: in toluene, 323.15 K
measure: solubility (mole fraction)

*Q* Identify measured solubility (mole fraction) associated with "N#Cc1cccc([N+](=O)[O-])c1C#N"
*A* 0.00521

----------
- applied conditions: in isopropanol, 298.15 K
measure: solubility (mole fraction)
Simply state the number, no unit and no words.

*Q* Identify measured solubility (mole fraction) associated with "N#Cc1cccc([N+](=O)[O-])c1C#N"
*A* 0.00125

----------
- applied conditions: in isopropanol, 308.15 K
measure: solubility (mole fraction)
Simply state the number, no unit and no words.

*Q* Identify measured solubility (mole fraction) associated with "N#Cc1cccc([N+](=O)[O-])c1C#N"
*A* 0.00179

----------
- applied conditions: in n-butanol, 323.15 K
measure: solubility (mole fraction)
Simply state the number, no unit and no words.

*Q* Identify measured solubility (mole fraction) associated with "N#Cc1cccc([N+](=O)[O-])c1C#N"
*A* 0.00207

----------
- applied conditions: in ethanol, 318.15 K
measure: solubility (mole fraction)
Simply state the number, no unit and no words.

*Q* Identify measured solubility (mole fraction) associated with "N#Cc1cccc([N+](=O)[O-])c1C#N"
*A* 0.00382

----------
- applied conditions: in acetone, 278.15 K
measure: solubility (mole fraction)
Simply state the number, no unit and no words.

*Q* Identify measured solubility (mole fraction) associated with "N#Cc1cccc([N+](=O)[O-])c1C#N"
*A* 0.0204

----------
- applied conditions: in toluene, 313.15 K
measure: solubility (mole fraction)
Simply state the number, no unit and no words.

*Q* Identify measured solubility (mole fraction) associated with "N#Cc1cccc([N+](=O)[O-])c1C#N"
*A* 0.00367

----------
- applied conditions: in toluene, 278.15 K
measure: solubility (mole fraction)
Simply state the number, no unit and no words.

*Q* Identify measured solubility (mole fraction) associated with "N#Cc1cccc([N+](=O)[O-])c1C#N"
*A* 0.000946

----------
- applied conditions: in methanol, 318.15 K
measure: solubility (mole fraction)
Simply state the number, no unit and no words.

*Q* Identify measured solubility (mole fraction) associated with "N#Cc1cccc([N+](=O)[O-])c1C#N"
*A* 0.00695

----------
- applied conditions: in water, 308.15 K
measure: solubility (mole fraction)
Simply state the number, no unit and no words.

*Q* Identify measured solubility (mole fraction) associated with "N#Cc1cccc([N+](=O)[O-])c1C#N"
*A* 0.000176

----------
- applied conditions: in methanol, 288.15 K
measure: solubility (mole fraction)
Simply state the number, no unit and no words.

*Q* Identify measured solubility (mole fraction) associated with "N#Cc1cccc([N+](=O)[O-])c1C#N"
*A* 0.00283
